Below, each of the compounds is paired with its reported solubility value.
Assay Procedure: Aqueous solubility in pH 7.4 buffer
Type: physicochemical
Experimental Endpoint: solubility (µg/mL)

CCCCNc1nc(N)c2[nH]c(=O)n(Cc3ccc(CN(C)C)cc3)c2n1: 98
CCCCNc1nc(N)c2[nH]c(=O)n(Cc3ccc(N4CCNCC4)nc3)c2n1: 63
CCCCNc1nc(N)c2[nH]c(=O)n(Cc3ccc(N4CCC(N(C)C)CC4)nc3)c2n1: 71
CCCCNc1nc(N)c2[nH]c(=O)n(Cc3ccc(OCCN4CCOCC4)nc3)c2n1: 34
CCCCNc1nc(N)c2[nH]c(=O)n(Cc3ccc(CN4CCCCC4)cc3)c2n1: 19
CCCCNc1nc(N)c2[nH]c(=O)n(Cc3ccc(N4CCN(C)CC4)nc3)c2n1: 7
CCCCNc1nc(N)c2[nH]c(=O)n(Cc3ccc(CN4CCOCC4)cc3)c2n1: 8
CCCCNc1nc(N)c2[nH]c(=O)n(Cc3ccc(CN4CCN(C)CC4)cc3)c2n1: 108

---

Below, each of the molecules is paired with its reported EC50 value.
Subject Of Test: Toll-like receptor 7 (Homo sapiens)
Assay Procedure: Agonist activity at human TLR7 expressed in HEK293 cells by NFkappaB SEAP reporter gene assay
Experimental Endpoint: EC50 (µM)

CCCCNc1nc(N)c2[nH]c(=O)n(Cc3ccc(CN4CCCCC4)cc3)c2n1: 0.0076
CCCCNc1nc(N)c2nc(O)n(Cc3ccc(C)cc3)c2n1: 0.166
CCCCNc1nc(N)c2[nH]c(=O)n(Cc3ccc(CN4CCN(C)CC4)cc3)c2n1: 0.007
CCCCNc1nc(N)c2[nH]c(=O)n(Cc3ccc(N4CCN(C)CC4)nc3)c2n1: 0.0054
CCCCNc1nc(N)c2[nH]c(=O)n(Cc3ccc(N(C)CCCN(C)C)nc3)c2n1: 0.0728
CCCCNc1nc(N)c2[nH]c(=O)n(Cc3ccc(OCCN4CCOCC4)nc3)c2n1: 0.0502
CCCCNc1nc(N)c2[nH]c(=O)n(Cc3ccc(N4CCNCC4)nc3)c2n1: 0.0485
CCCCNc1nc(N)c2[nH]c(=O)n(Cc3ccc(CN(C)C)cc3)c2n1: 0.0093
CCCCNc1nc(N)c2[nH]c(=O)n(Cc3cccc(CN4CCN(C)CC4)c3)c2n1: 0.13
CCc1nc2c(N)nc3ccccc3c2n1CCCCNS(C)(=O)=O [CPG-52852]: 2.66

---

Below, each of the molecules is paired with its reported pEC50 value.
Subject Of Test: Toll-like receptor 7 (Homo sapiens, UniProt Q9NYK1)
Sequence (Q9NYK1 whole entry): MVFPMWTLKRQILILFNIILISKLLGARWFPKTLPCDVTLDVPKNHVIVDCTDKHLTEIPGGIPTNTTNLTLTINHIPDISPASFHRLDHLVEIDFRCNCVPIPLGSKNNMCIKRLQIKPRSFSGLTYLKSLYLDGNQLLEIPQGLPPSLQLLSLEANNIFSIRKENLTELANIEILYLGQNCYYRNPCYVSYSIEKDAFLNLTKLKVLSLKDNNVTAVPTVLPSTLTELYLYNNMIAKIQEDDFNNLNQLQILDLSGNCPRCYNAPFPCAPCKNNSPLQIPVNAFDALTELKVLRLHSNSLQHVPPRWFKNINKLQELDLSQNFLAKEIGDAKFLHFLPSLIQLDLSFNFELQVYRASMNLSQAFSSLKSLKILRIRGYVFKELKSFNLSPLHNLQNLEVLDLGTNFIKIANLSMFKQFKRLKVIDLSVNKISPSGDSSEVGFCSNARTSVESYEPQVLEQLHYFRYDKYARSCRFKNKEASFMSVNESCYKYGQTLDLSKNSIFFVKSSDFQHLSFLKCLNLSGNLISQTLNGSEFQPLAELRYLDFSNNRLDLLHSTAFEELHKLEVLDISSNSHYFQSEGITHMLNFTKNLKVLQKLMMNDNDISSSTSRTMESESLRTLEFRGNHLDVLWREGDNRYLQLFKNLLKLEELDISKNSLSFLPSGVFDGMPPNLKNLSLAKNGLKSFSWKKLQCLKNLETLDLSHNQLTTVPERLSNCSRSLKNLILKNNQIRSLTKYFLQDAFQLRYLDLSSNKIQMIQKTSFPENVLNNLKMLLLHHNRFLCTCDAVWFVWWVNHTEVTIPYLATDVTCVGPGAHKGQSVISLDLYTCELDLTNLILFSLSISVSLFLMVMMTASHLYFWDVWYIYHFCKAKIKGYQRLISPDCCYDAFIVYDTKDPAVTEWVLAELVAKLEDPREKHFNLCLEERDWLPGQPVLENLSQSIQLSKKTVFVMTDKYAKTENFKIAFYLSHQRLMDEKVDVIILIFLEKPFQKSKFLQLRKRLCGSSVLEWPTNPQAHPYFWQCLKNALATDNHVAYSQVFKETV
Assay Procedure: Agonist activity at human TLR7 expressed in HEK293 cells by NFkappaB SEAP reporter gene assay
pEC50: −log10 of the molar value.
Experimental Endpoint: pEC50

CCCCNc1nc(N)c2[nH]c(=O)n(Cc3ccc(OCCN(C)C)nc3)c2n1: 8.14
CCCCNc1nc(N)c2[nH]c(=O)n(Cc3ccc(N4CCC(N(C)C)CC4)nc3)c2n1: 8.03
CCCCNc1nc(N)c2[nH]c(=O)n(Cc3ccc(N4CCC(N(C)C)C4)nc3)c2n1 (centres undefined): 8.13
CCCCNc1nc(N)c2nc(O)n(Cc3ccc(OC)nc3)c2n1: 7.55
CCCCNc1nc(N)c2[nH]c(=O)n(Cc3ccc(OCCNC)nc3)c2n1: 6.78
CCCCNc1nc(N)c2nc(O)n(Cc3ccc(C)nc3)c2n1: 7.49
CCCCNc1nc(N)c2[nH]c(=O)n(Cc3ccc(CN4CCOCC4)cc3)c2n1: 7.24
CCCCNc1nc(N)c2[nH]c(=O)n(Cc3ccc(OCCCCN(C)C)nc3)c2n1: 7.82
CCCCNc1nc(N)c2[nH]c(=O)n(Cc3cccc(CN4CCCCC4)c3)c2n1: 7.52
